System: J558L
test_method_notes: Inhibition of proteasome in mouse J558L cell lysate assessed as cleavage of Suc-leu-leu-val-Tyr-AMC at 100 nM after 30 mins
Set-up: scale not given: the % may be the effect or the level left
measured_property: Activity (%)

Here are 4 compounds together with their reported answers.
compound | Activity (%)
CC(C)CC(NC(=O)[C@H](CC(C)C)NC(=O)OCc1ccccc1)C(=O)N[C@@H](C=O)CC(C)C (stereo in doubt; (-)) | 93
CC(C)C[C@H](C=O)NC(=O)[C@@H](CC(C)C)NC(=O)[C@@H](CC(C)C)NC(=O)OCc1ccccc1 | 89
CC(C)C[C@@H](C=O)NC(=O)[C@H](CC(C)C)NC(=O)[C@H](CC(C)C)NC(=O)OCc1ccccc1 (stereo in doubt) | 91
CC(C)CC(NC(=O)[C@H](CC(C)C)NC(=O)OCc1ccccc1)C(=O)N[C@@H](C=O)CC(C)C (stereo in doubt; (+)) | 105

P. CC(C)CC(NC(=O)[C@@H](CC(C)C)NC(=O)OCc1ccccc1)C(=O)N[C@H](C=O)CC(C)C (single isomer, unassigned; (+))
Q. CC(C)CC(NC(=O)[C@@H](CC(C)C)NC(=O)OCc1ccccc1)C(=O)N[C@H](C=O)CC(C)C (stereo in doubt)
Could you kindly indicate whether P or Q has the higher Activity value? Returns: label corresponding to the selected item. P

a. CC(C)C[C@@H](C=O)NC(=O)[C@@H](CC(C)C)NC(=O)[C@H](CC(C)C)NC(=O)OCc1ccccc1
b. CC(C)C[C@H](NC(=O)[C@@H](CC(C)C)NC(=O)OCc1ccccc1)C(=O)N[C@@H](C=O)CC(C)C
Form field 'greater Activity' accepts a or b ; which applies? Give the label under which the chosen entry appears. b
(b: 110%, a: 36%)
